Organism: Rattus norvegicus
Experiment: Open TG-GATES - Regimen: Single
Type: toxicity, organism-based, Sprague-Dawley
Design: regimen Single, gender Male, age 6 weeks
Settings: in vivo, po, 0 mg/kg, 6 h, route gavage, dose level Control
OUTCOME MEASURE: TERMINAL_BW

GET /values?readout=TERMINAL_BW&item= CNC(=C[N+](=O)[O-])NCCSCc1ccc(CN(C)C)o1 213.6 g

// for each compound in input: emit TERMINAL_BW
1. Nc1c2c(nc3ccccc13)CCCC2
2. NC1=NC(=O)C(c2ccccc2)O1 (centres undefined)
3. CC(C)NNC(=O)c1ccncc1
4. COC(=O)C1=C(C)NC(C)=C(C(=O)OC)C1c1ccccc1[N+](=O)[O-]
5. CN1C(=O)CCS(=O)(=O)C1c1ccc(Cl)cc1 (centres undefined)

1: 208.7 g; 2: 209.5 g; 3: 208.9 g; 4: 197 g; 5: 224.1 g

// for each compound in input: emit TERMINAL_BW
1. CN(C)CCC(c1ccc(Cl)cc1)c1ccccn1 (centres undefined)
2. O=C(OC[C@H]1O[C@@H](OC(=O)c2cc(O)c(O)c(OC(=O)c3cc(O)c(O)c(O)c3)c2)[C@H](OC(=O)c2cc(O)c(O)c(OC(=O)c3cc(O)c(O)c(O)c3)c2)[C@@H](OC(=O)c2cc(O)c(O)c(OC(=O)c3cc(O)c(O)c(O)c3)c2)[C@@H]1OC(=O)c1cc(O)c(O)c(OC(=O)c2cc(O)c(O)c(O)c2)c1)c1cc(O)c(O)c(OC(=O)c2cc(O)c(O)c(O)c2)c1
3. Cc1nnc2n1-c1ccc(Cl)cc1C(c1ccccc1Cl)=NC2

1. 196.5 g
2. 186.3 g
3. 191.8 g

The measured values listed here are drawn from ChEMBL document CHEMBL3885861.
